system: MS2 coat protein; assay: apparent KD of MS2 coat protein; designed switch direction (-1 OFF switch, 1 ON switch): -1; higher = weaker reporter binding; conditions: input ligand: FMN 200 uM

| biopolymer_sequence | apparent KD of MS2 coat protein [nM] |
| --- | --- |
| UUAAUACAUGUAGGAUAUGCGUGGCGAAGCUAUGCAGAAGGACAUGAGGAUCACCCAUGUUCCAGCGUCCGCGUACGGAUGCAA [JL Eng1 1.21 mod 12] (Eterna round: R96, puzzle: Exclusion NG 1) | 14.2 |
| ACAUGAGGAUCACCCAUGUGAAAACAAUGGCUGACUUUGAGAUAGGAUAUAGGUGCAUAUCAAACCUAGAAGGGUCAUUACUGG [Deportation 91 - Jieux - Exclusion NG 3] (Eterna round: R96, puzzle: Exclusion NG 3) | 46.6 |
| GCAAGCUUUUUCAAUAAGAACAUGAGGAUCACCCAUGUUUAAGGUAUUACUUUUGGGCUCUUUAGUGCUCGUCUUAU [JR_STOV1_Sub035] (Eterna round: R97, puzzle: Sensor, turn-off variant 1) | 17.9 |
| GGCAUGCAAGGAUAUACUUACAGUGAUGUUCGAAUAAGUCUACUUGAGGAUCACCCAAGUAGAAGGUGCAUGCC [Exclusion 2 (Mod3.1 JL EX2 4.74 Vienna UCT mod of Mamaed)] (Eterna round: R97, puzzle: Exclusion 2) | 62.8 |

---

test system: MS2 coat protein; assay: apparent KD of MS2 coat protein; designed switch direction (-1 OFF switch, 1 ON switch): 1; higher = weaker reporter binding; details: Eterna round: R98; input ligand: FMN 200 uM
Entries and their apparent KD of MS2 coat protein
measure_name: apparent KD of MS2 coat protein (nM)

| biopolymer_sequence | measure_name | unit_text | test_result |
| --- | --- | --- | --- |
| CCUGUCGCAUGAGGAUAUGGUCAGCUUUGCUGACCAGAAGGCAUGUCAAUAGACAUGAGGAUCACCCAUGUAGUAAAGACAGGA [Mat - Same State NG 1 - JL Mod - D36] | apparent KD of MS2 coat protein | nM | 36.2 |
| GGUUGACGACAAUUACAUGAGGAUCACCCAUGUUGUGGGAUGCAGGAUAUGUGGUAUAUUAUUUAACAGAAGGGCAAUAAUUUU [JR_SSNG3_Sub063] | apparent KD of MS2 coat protein | nM | 54.7 |
| ACAUACAUUCGAGGAUAUCGGUGAUUAAUUCUACGAGAAGGCGAUUUAAGAUAUAAUAUUUUAGACAUGAGGAUCACCCAUGUA [JR_SSNG1_Sub036] | apparent KD of MS2 coat protein | nM | 22.9 |
| GAUCCGAGCACAGGAUAUGUUAGAGAGGGUGAGACAGAAGGGUGCUCCGGUAAGGCCAAGCACAUGAGGAUCACCCAUGUACAU [Orbezaen] | apparent KD of MS2 coat protein | nM | 64.9 |
| GGUCCAUCAUGAGGAUAUGGCACCUUAUUGGUGCCAGAAGGCAUGUGUAUUCACAUGAGGAUCACCCAUGUAAUAAAUUGGACC [Pyrimidine booster 8] | apparent KD of MS2 coat protein | nM | 21.5 |
| GUUGCUUUCCGAGGAUAUUCCGGGCGUGGCUAUACAUGAGGAUCACCCAUGUGGCGGAAGCCUAGGGAGAAGGCGGGCUGCUUC [salish99_SSNG2_r2_230] | apparent KD of MS2 coat protein | nM | 16.3 |
| GGAUCCAUCACAGGAUAUGCUGGACUUUGUCCAGCAGAAGGGUGAACAUGAGGAUCACCCAUGUAUUGGAUCCAUAUAUUUAAU [Denovo 35] | apparent KD of MS2 coat protein | nM | 94.1 |
| GCUUGCGACGCAGGAUAUGGGUGCCUGCACACGAGGAUCACCCGUGUAGAGGAAGCGAAAAGCUCUCAGAAGGGCGUCGCAGGC [United States 5 - Jieux - Same State NG 2] | apparent KD of MS2 coat protein | nM | 20.7 |
| CCGAUGCAAAUAAAACAUGAGGAUCACCCAUGUGAGUCUCAUGAGGAUAUGCAGGUCAAAGACUUGCAGAAGGCAUGGCGUCGG [Eli sng3 2.08] | apparent KD of MS2 coat protein | nM | 135 |
| UCUCUGGAAUACAUGAGGAUCACCCAUGUGUAAACAUUUACACAGGAUAUCGACGUCUGAGACGACGAGAAGGGUGGGCAGCAA [Rexele] | apparent KD of MS2 coat protein | nM | 1000 |
| GGGUCGCUUGGAGGAUAUCCAACUAUCCUAGUUGGAGAAGGCCAAGCUACAGAGCUAAGCUUGGAAGUCACUUCGGACCCACAC [pwkr ssNG1 F9.4.5] | apparent KD of MS2 coat protein | nM | 47 |
| UGAUCGCUUGGAGGAUAUCCAACUAUCCUAGUUGGAGAAGGCCAAGCUACAGAGCUAAGCUUGGAAGUCACUUCGAAUCAACAC [pwkr Chip 1 Control 70 ssNG1 F9.4] | apparent KD of MS2 coat protein | nM | 64.8 |

---

tested on: MS2 coat protein; assay: apparent KD of MS2 coat protein; designed switch direction (-1 OFF switch, 1 ON switch): -1; higher = weaker reporter binding; conditions: input ligand: none
measure_name: apparent KD of MS2 coat protein

| biopolymer_sequence | test_result |
| --- | --- |
| UAAGGGUGCGUAGGAUAUCGCGGCCGAAUAAAGCGAGAAGGACGCCCGAAUGGGUCGUCCAACAUGAGGAUCACCCAUGUAAAC [Soerre] (Eterna round: R96, puzzle: Exclusion NG 1) | 50.2 nM |
| AUGGGUCCUCACGGAGCUACAUGAGGAUCACCCAUGUGGAUUGAGGAUAUCGACUGCCGACGGCUCGAGAAGGCAGUUUACUGU [Ex NG3 #95] (Eterna round: R96, puzzle: Exclusion NG 3) | 20.2 nM |
| UGCGGUUGAGGAUAUACGUAGAACUAGGUUCAUGUAAAACUACAUGAGGAUCACCCAUGUAGAAGGCAAUCGCU [Mat - Exclusion 2 - JL Mod - D41] (Eterna round: R97, puzzle: Exclusion 2) | 20.3 nM |
| AGUAGUUCAGGAUAUGAUGAAGAGAACAUGAGGAUCACCCAUGUUGCAUCGUUUUUAUCAUCAGAAGGGAAUAACU [JR_Ex5_Sub085] (Eterna round: R97, puzzle: Exclusion 5) | 13.1 nM |
| GCUGGUCAAGGAUAUACAAUCGUGCUUCGGCACGUAAGAUCACAUGAGGAUCACCCAUGUAGAAGGUGACCAGC [E2/1-C1] (Eterna round: R97, puzzle: Exclusion 2) | 37.2 nM |

---

system: MS2 coat protein; assay: apparent KD of MS2 coat protein; designed switch direction (-1 OFF switch, 1 ON switch): 1; higher = weaker reporter binding; settings: Eterna round: R95; input ligand: none
Just so you know, the groups by apparent KD of MS2 coat protein go like this: c1: < 50 nM; c2: ≥ 50 nM and < 500 nM; c3: ≥ 500 nM

| biopolymer_sequence | class_assignment |
| --- | --- |
| AGUCCAGCCUGAGCUGGACAAAAGCAUGUACAUGAGGAUCACCCAUGUCAUGUAUAAGCUUUUUGCUCGUCUUAAUA [Zipper 49 - 11] (puzzle: Sensor for hsa-mir-208a) | c1 |
| AUAAAACAUGAGGAUCACCCAUGUCAACAAAGUCGAGGAUAUGGGCAAAUAAAAUAAGAACCAGAAGGCGAAUUAU [salish99_ss1_r3_036] (puzzle: Same State 1) | c3 |
| UGGUAACAUGAGGAUCACCCAUGUCAAAUGAAUCGAGGAUAUGGGAACUAACAACACAAACUAGAAGGCGAACUUG [Altered State 1-9 - Jieux - Same State 1] (puzzle: Same State 1) | c2 |
| AACAAUCUAUCUGAGGAUAUCAUGAAAUAAACAUGAGGAUCACCCAUGUGCAGGAAAACUGCAUAUGAGAAGGCUGAUAGAUUGA [salish99_ss2_r3_051] (puzzle: Same State 2) | c3 |
| GGUCCAGCCUGAGCUGGACAAAAGCAUGUACAUGAGGAUCACCCAUGUCAUGUACAAGCUUUUUGCUCGUCUUAAUU [Mat - hsa-mir-208a - 87] (puzzle: Sensor for hsa-mir-208a) | c3 |
| AUAAAACAUGAGGAUCACCCAUGUCAACAAAGUCGAGGAUAUGGGCAAAUAAAAUAAGAACUAGAAGGCGAAUAAU [salish99_ss1_r3_031] (puzzle: Same State 1) | c2 |
| AAAGGACAUGAGGAUCACCCAUGUAGAAAAUACACAGGAUAUCGUCAUAUCGAAAUAUAAUGAGAAGGGUGCAAAA [Zaanininra] (puzzle: Same State 1) | c2 |
| AGAGAACAUGAGGAUCACCCAUGUGGGAGAGGCAUAGGAUAUAGAGGAGAGAGCGAGGAACUAGAAGGAUGAUGGA [JR_SS1_Sub080] (puzzle: Same State 1) | c2 |
| AUAAAACAUGAGGAUCACCCAUGUCAACAAAGUCGAGGAUAUGGGCAAAUAAAAUAAUAACCAGAAGGCGAAUAAU [salish99_ss1_r3_018] (puzzle: Same State 1) | c3 |
| CUCCCACGUGCACAGGAUAUGCCGGGAUGCACAUGAGGAUCACCCAUGUAAUCCUGAAAAUAAAAGCAGAAGGGUGAUCAUGGGU [Teestege] (puzzle: Same State 2) | c1 |
| ACGCAGCUGGGUGAGGAUAUCGGUGGUAAAACAUGAGGAUCACCCAUGUCCGAAGCUCGGACCUCCGAGAAGGCGCCCGGCUGCG [Soinraesar Omei Mod 1] (puzzle: Same State 2) | c1 |
| UCUUGGUUUUUGCUCGUUUUUUGUGUUGAACAUGAGGAUCACCCAUGUAUUGUACAAUCCGGUUUAAUAAUGGUCCG [JMF 51] (puzzle: Sensor for hsa-mir-208a) | c1 |
| UGAGCCGGCACUGAGGAUAUUCAUAUUUAAACAUGAGGAUCACCCAUGUAGGCCAGAAGGCCUUGGGAGAAGGCAGGUCGGCUCC [salish99_ss2_r3_079] (puzzle: Same State 2) | c2 |
| AGCGAGAUAGGCAAGGAUAUGUAGUUUGGCACAUGAGGAUCACCCAUGUCAAUCCAUUUUUUGGAACAGAAGGUGCAUUCUCUUU [ak fourth] (puzzle: Same State 2) | c1 |
| GAGUAGGAGUUACAGGAUAUAUGGAGGAGGACAUGAGGAUCACCCAUGUGAGAGAUGAGAGGAGGAUAGAAGGGUAAGGGAGUAA [JR_SS2_Sub028] (puzzle: Same State 2) | c1 |
| GGCUAUCGCAUUCGAUAGCCUGAGCAUGUACAUGAGGAUCACCCAUGUCAUGUACAGGCUUUUUGCUCGUACUUAUA (puzzle: Sensor for hsa-mir-208a) | c2 |
| CGUCCGGCCUGUGCUGGCCGGUUGCUUGUACAUGAGGAUCACCCAUGUUCUUGUGCUGGCUUUUUGCUCGUCUUGUG [salish99_mir208a_019] (puzzle: Sensor for hsa-mir-208a) | c1 |
| AGUCCAGCCUAAGCUGGACAAAAGCAUGUACAUGAGGAUCACCCAUGUUCAUGUACAAGCUUUUUGCUCGUCUUAAU [Mat - hsa-mir-208a - Mod of JL - 60] (puzzle: Sensor for hsa-mir-208a) | c3 |
